B1: TRIM43 (parent)
chain: NNSWIRKNSTMVNSEDIFLLLCLK

variants of: B1; assay: protein stability index of a GFP-peptide fusion (GPS, HEK-293T) (PSI 1-6); higher = more stable; settings: c terminus: a fixed tail appended;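 note: lentivirally expressed fusions sorted by FACS into six bins by GFP to DsRed ratio, PSI derived from sequencing read proportions per bin multiplied by bin number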
measure: protein stability index
Just the number, please, no unit attached.

QUERY: I am curious: what protein stability index value has been reported for `S9H` ?
RESULT: 2.91

QUERY: Field entry: `L19Y`
RESULT: 3.02

QUERY: Field entry: `C22V`
RESULT: 2.96

QUERY: Field entry: `L21W`
RESULT: 2.91

QUERY: Field entry: `N8Q`
RESULT: 2.93
